Target: T1, hCSF1R ECD.506 (human, UniProt P07333 20-506)
T1 construct: also called human CSF1R ECD
T1 sequence (P07333 20-506): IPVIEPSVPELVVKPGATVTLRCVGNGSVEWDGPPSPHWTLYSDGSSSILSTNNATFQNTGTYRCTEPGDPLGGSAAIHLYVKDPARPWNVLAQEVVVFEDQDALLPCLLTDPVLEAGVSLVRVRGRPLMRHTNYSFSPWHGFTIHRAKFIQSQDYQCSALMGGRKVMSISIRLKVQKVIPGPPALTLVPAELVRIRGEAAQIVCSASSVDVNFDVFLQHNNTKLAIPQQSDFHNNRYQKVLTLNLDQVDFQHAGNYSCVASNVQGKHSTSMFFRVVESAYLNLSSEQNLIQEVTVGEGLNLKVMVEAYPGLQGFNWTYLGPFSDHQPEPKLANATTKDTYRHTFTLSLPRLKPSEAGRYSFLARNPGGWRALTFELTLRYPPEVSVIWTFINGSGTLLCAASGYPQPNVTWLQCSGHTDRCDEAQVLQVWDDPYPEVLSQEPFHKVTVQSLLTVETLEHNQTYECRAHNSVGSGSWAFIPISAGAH
Experiment: SPR Biacore T100, antibody captured on anti-human IgG, hCSF1R ECD.506 as analyte, 1:1 model
Procedure: The kₐ, kd, and KD for binding to human CSF1R ECD was determined for each of the humanized antibodies as follows. Binding kinetics of anti-CSF1R humanized antibodies to CSF1R ECD was determined using Biacore T100 Surface Plasmon Resonance (SPR) (GE Healthcare Life Sciences, Piscataway, N.Y.). […]

- BINDER: "h0302-L1H2 (antibody, human IgG4 S228P, kappa, V domains shown, also called Ab11; huAb 0302-L1H2) VH: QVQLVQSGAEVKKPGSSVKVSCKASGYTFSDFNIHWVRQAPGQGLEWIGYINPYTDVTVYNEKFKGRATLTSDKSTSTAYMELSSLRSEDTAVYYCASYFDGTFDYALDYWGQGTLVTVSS VL: EIVLTQSPATLSLSPGERATLSCRASESVDNYGLSFMNWYQQKPGQAPRLLIYTASNLESGIPARFSGSGSRTDFTLTISSLEPEDFAVYYCQQSKELPWTFGQGTKVEIKR"
  kon (M⁻¹ s⁻¹): "2.71e+06"
- BINDER: "h0302-L2H1 (antibody, human IgG4 S228P, kappa, V domains shown, also called Ab9; huAb 0302-L2H1) VH: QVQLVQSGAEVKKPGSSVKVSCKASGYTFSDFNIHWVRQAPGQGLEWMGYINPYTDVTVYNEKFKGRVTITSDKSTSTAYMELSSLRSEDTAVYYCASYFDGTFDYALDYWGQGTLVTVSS VL: EIVVTQSPATLSLSPGERATLSCRASESVDNYGLSFMNWFQQKPGQAPRLLIYTASNLESGIPARFSGSGSRTDFTLTISSLEPEDFAVYYCQQSKELPWTFGQGTKVEIKR"
  kon (M⁻¹ s⁻¹): "1.6e+06"
- BINDER: "h0302-L0H2 (antibody, human IgG4 S228P, kappa, V domains shown, also called Ab10; huAb 0302-L0H2) VH: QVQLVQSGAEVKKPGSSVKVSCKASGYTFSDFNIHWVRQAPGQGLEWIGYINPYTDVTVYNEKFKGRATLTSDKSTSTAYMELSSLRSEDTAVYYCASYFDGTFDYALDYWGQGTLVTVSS VL: EIVLTQSPATLSLSPGERATLSCRASESVDNYGLSFMNWYQQKPGQAPRLLIYTASNLESGIPARFSGSGSGTDFTLTISSLEPEDFAVYYCQQSKELPWTFGQGTKVEIKR"
  kon (M⁻¹ s⁻¹): "3.4e+06"
- BINDER: "h0311-L0H1 (antibody, human IgG4 S228P, kappa, V domains shown, also called Ab13; huAb 0311-L0H1) VH: QVQLVQSGAEVKKPGSSVKVSCKASGYIFTDYNMHWVRQAPGQGLEWMGEINPNNGVVVYNQKFKGRVTITVDKSTSTAYMELSSLRSEDTAVYYCTRALYHSNFGWYFDSWGQGTLVTVSS VL: EIVLTQSPATLSLSPGERATLSCKASQSVDYDGDSHMNWYQQKPGQAPRLLIYTASNLESGIPARFSGSGSGTDFTLTISSLEPEDFAVYYCQQGNEDPWTFGQGTKVEIKR"
  kon (M⁻¹ s⁻¹): "1.22e+06"
- BINDER: "h0302-L2H2 (antibody, human IgG4 S228P, kappa, V domains shown, also called Ab12; huAb 0302-L2H2) VH: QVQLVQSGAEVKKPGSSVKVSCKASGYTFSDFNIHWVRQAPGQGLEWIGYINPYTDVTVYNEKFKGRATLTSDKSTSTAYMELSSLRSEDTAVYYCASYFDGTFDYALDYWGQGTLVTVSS VL: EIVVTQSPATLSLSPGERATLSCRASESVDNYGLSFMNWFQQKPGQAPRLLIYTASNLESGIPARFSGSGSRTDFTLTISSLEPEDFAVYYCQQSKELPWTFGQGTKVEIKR"
  kon (M⁻¹ s⁻¹): "1.84e+06"
- BINDER: "h0302-L1H1 (antibody, human IgG4 S228P, kappa, V domains shown, also called Ab8; huAb 0302-L1H1) VH: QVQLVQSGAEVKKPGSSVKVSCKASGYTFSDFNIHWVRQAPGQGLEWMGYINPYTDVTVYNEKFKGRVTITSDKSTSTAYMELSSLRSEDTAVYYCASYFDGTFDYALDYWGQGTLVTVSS VL: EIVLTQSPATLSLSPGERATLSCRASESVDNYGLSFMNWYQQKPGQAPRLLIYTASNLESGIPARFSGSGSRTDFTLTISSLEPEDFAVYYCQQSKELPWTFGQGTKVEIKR"
  kon (M⁻¹ s⁻¹): "3.47e+06"
- BINDER: "h0311-L0H2 (antibody, human IgG4 S228P, kappa, V domains shown, also called Ab15; huAb 0311-L0H2) VH: QVQLVQSGAEVKKPGSSVKVSCKASGYIFTDYNMHWVRQAPGQGLEWMGEINPNNGVVVYNQKFKGTTTLTVDKSTSTAYMELSSLRSEDTAVYYCTRALYHSNFGWYFDSWGQGTLVTVSS VL: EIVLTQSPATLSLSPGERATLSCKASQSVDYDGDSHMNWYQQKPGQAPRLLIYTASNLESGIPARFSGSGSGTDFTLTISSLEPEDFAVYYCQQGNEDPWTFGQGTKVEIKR"
  kon (M⁻¹ s⁻¹): "1.34e+06"
- BINDER: "h0311-L1H1 (antibody, human IgG4 S228P, kappa, V domains shown, also called Ab14; huAb 0311-L1H1) VH: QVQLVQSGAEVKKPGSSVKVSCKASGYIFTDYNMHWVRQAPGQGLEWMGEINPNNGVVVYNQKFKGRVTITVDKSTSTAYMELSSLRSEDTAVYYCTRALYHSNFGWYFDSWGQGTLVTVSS VL: DIVLTQSPATLSLSPGERATLSCKASQSVDYDGDSHMNWYQQKPGQAPRLLIYTASNLESGIPARFSGSGSGADFTLTISSLEPEDFAVYYCQQGNEDPWTFGQGTKVEIKR"
  kon (M⁻¹ s⁻¹): "1.32e+06"
- BINDER: "h0302-L0H1 (antibody, human IgG4 S228P, kappa, V domains shown, also called Ab7; huAb 0302-L0H1) VH: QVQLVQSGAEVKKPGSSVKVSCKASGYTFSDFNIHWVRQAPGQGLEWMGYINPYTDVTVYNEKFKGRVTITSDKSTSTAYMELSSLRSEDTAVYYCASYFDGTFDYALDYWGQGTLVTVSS VL: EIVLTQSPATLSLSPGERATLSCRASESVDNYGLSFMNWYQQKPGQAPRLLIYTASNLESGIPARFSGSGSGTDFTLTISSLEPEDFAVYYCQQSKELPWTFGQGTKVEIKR"
  kon (M⁻¹ s⁻¹): "3.54e+06"
- BINDER: "h0311-L1H2 (antibody, human IgG4 S228P, kappa, V domains shown, also called Ab16; huAb 0311-L1H2) VH: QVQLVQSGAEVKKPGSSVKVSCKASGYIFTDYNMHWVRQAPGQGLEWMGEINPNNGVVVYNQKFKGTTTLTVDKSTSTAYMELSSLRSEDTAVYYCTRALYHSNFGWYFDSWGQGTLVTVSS VL: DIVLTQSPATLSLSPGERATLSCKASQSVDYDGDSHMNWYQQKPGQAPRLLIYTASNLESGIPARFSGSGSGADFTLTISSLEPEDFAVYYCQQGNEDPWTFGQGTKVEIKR"
  kon (M⁻¹ s⁻¹): "1.51e+06"
